# TARGET_SYSTEM: UniProt:Q9UGI6
# ASSAY_NOTES: Inside-out patch clamp, inhibition of KCa2.3 channels by negative modulator
# Format: cell-based
# EXPERIMENTAL_CONDITIONS: read-out: IC50 for inhibition of KCa2.3 channels; 0.5 μM Ca2+; mean ± SD, n = 5
RECORDED_ENDPOINT: pIC50
Quick note: pIC50 means taking -log10 of the concentration in moles per liter.

Observed pIC50 on UniProt:Q9UGI6, entry CC(=O)Nc1cccc2[nH]c(N[C@H](C)c3cccc(C(F)(F)F)c3)nc12 , equals 6.01
